# logP per entry

Given smiles: CCNC(=O)c1cc2ccccc2[nH]1
logP: 2.32
//
Given smiles: CCNC(=O)c1ccc[nH]1
logP: 0.8
//
Given smiles: CNC(=O)c1cccn1C
logP: 0.71
//
Given smiles: CCNC(=O)c1c[nH]c2ccccc12
logP: 1.62

Read the next record carefully.
input: Return the recorded logP value; entry: "CCNC(=O)c1cc2ccccc2o1"
output: 2.22

###

Parameter: logP
Form: value (number only, do not type unit).

Recorded logP, per entry:
Given smiles: CNC(=O)c1cc2ccccc2o1
Number: 1.85
--
Given smiles: CNC(=O)c1cc2ccccc2[nH]1
Number: 1.9
--
Given smiles: O=[N+]([O-])c1cncnc1
Number: -0.05
--
Given smiles: CCCNC(=O)c1cc2ccccc2o1
Number: 2.65
--
Given smiles: CCCNC(=O)c1ccc[nH]1
Number: 1.25

input: Return the recorded logP value; entry: "NC(=O)c1ccc[nH]1"
output: 0.09

input: Return the recorded logP value; entry: "Cn1cccc1C(N)=O"
output: 0.45

input: Return the recorded logP value; entry: "CCOC(=O)c1ccc[nH]1"
output: 1.73

input: Return the recorded logP value; entry: "CCOC(=O)c1cc2ccccc2[nH]1"
output: 3.22

input: Return the recorded logP value; entry: "CCOC(=O)c1cc2ccccc2o1"
output: 3.05

input: Return the recorded logP value; entry: "CCCNC(=O)c1ccoc1"
output: 1.2

###

Parameter: logP

Recorded logP, per entry:
Given smiles: CNC(=O)c1c[nH]c2ccccc12
logP: 1.25
--
Given smiles: CNC(=O)c1ccc[nH]1
logP: 0.42
--
Given smiles: CCNC(=O)c1cccn1C
logP: 1.09
--
Given smiles: CCCNC(=O)c1cccn1C
logP: 1.63

input: Return the recorded logP value; entry: "CCCNC(=O)c1cc2ccccc2[nH]1"
output: 2.8

input: Return the recorded logP value; entry: "COC(=O)c1cccn1C"
output: 1.8
